# Study system: T1, PCSK9 protein inserted with biotin receiving peptide BP15 and His-tag: PCSK9-BP15-His6 (human, UniProt Q8NBP7 153-692; A8T644 31-152, biotin on the BP15 biotin receiving peptide (labeled during the expression))
# T1 construct: also called WT PCSK9; PCSK9 WT
# Procedure text: competition ELISA, LDLR-FC coated, biotin PCSK9 + antibody
# Experimental: The blocking ability of PCSK9 antibodies according to the present invention for the binding of LDLR-FC (produced in-house, with sequence of SEQ ID NO: 8) and PCSK9 (SEQ ID NO: 5) was tested by measuring the amount of PCSK9 binding to LDLR in the presence of the antibodies. LDLR-FC was diluted to 5 μg/ml with phosphate buffer and was added into the 96-well ELISA plate, kept at 4° C. overnight. […]
Measured endpoint: IC50 (µg/mL)
Your answer should be a plain number; it is taken to be in µg/mL.

Here are 4 binders together with their reported answers.
Binder: h011-3120 (antibody, V domains shown) VH: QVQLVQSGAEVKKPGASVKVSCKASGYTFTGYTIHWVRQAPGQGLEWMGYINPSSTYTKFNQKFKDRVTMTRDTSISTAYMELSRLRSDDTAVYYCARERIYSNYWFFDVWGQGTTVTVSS VL: DIVMTQSPSSLSASVGDRVTITCKASQNVYTAVAWYQQKPGKSPKLLIYSASNRYTGVPSRFSGSGSGTDFTLTISSLQPEDFATYFCQQFSWFPYTFGGGTKVEIK
Result unit: µg/mL
Readout number: 0.911
--
Binder: h011-3070 (antibody, V domains shown) VH: QVQLVQSGAEVKKPGASVKVSCKASGYTFTGYTIHWVRQAPGQGLEWMGYINPSSTYTKFNQKFKDRVTMTRDTSISTAYMELSRLRSDDTAVYYCARENIYFNYWFFDRWGQGTTVTVSS VL: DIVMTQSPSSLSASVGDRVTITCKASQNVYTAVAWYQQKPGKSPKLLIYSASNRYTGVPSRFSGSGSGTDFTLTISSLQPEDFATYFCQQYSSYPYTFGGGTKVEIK
Result unit: µg/mL
Readout number: 0.629
--
Binder: h011-3147 (antibody, V domains shown) VH: QVQLVQSGAEVKKPGASVKVSCKASGYTFTGYTIHWVRQAPGQGLEWMGEIIPSSTYTKFNQKFKDRVTMTRDTSISTAYMELSRLRSDDTAVYYCARERIYSNYWFFDVWGQGTTVTVSS VL: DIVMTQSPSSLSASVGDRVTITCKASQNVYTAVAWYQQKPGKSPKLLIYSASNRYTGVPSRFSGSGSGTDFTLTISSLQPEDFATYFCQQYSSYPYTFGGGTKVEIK
Result unit: µg/mL
Readout number: 0.567
--
Binder: h011-3118 (antibody, V domains shown) VH: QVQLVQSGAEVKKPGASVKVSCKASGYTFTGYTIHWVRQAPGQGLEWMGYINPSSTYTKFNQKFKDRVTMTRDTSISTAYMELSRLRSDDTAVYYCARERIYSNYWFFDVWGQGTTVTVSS VL: DIVMTQSPSSLSASVGDRVTITCKASQNVYWEVVWYQQKPGKSPKLLIYSASNRYTGVPSRFSGSGSGTDFTLTISSLQPEDFATYFCQQYSSYPYTFGGGTKVEIK
Result unit: µg/mL
Readout number: 1.04

The record that follows has no IC50 shown yet.
Q. Recorded IC50 of h011-3193 (antibody, V domains shown) VH: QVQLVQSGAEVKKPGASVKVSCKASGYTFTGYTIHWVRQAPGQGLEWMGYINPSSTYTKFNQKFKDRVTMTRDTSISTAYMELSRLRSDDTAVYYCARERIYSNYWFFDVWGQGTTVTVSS VL: DIVMTQSPSSLSASVGDRVTITCKASQNVYTAVDWYQQKPGKSPKLLIYSASNRYTGVPSRFSGSGSGTDFTLTISSLQPEDFATYFCQQYSSYPYTFGGGTKVEIK , please.
A. 0.621
